- protocol_summary: chemical genetic growth profiling, strain panel (AID 1159580);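 also: tested at 20 µM; growth read once vehicle control cultures reached saturation at 30 °C; 1 = growth at the plate median or of vehicle wells; lower values mean less growth of the strain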
- assay_context: S. cerevisiae deletion strains, growth OD, locus YCL029C, strain bik1, hits give low values
Screen size: about 5,500 compounds; about 2,000 (36%) were called active. Not shown: some 18% with an inconclusive outcome. This is one part of the list.
reported_endpoint: normalized growth

>>> result_value("COc1ccc2c(=O)c(CC(=O)O)coc2c1")
1
>>> result_value("O=c1[nH]cnc2nc[nH]c12")
0.977
>>> result_value("CC(=O)OCC(=O)[C@@]1(O)CCC2C3CCC4=CC(=O)CC[C@]4(C)[C@@]3(F)[C@@H](O)C[C@@]21C (stereo partly specified)")
0.995
>>> result_value("Cn1cnc([N+](=O)[O-])c1Sc1ncnc2nc[nH]c12")
0.997
>>> result_value("OCCN1CCN(CCCN2c3ccccc3Sc3ccc(Cl)cc32)CC1")
0.984
>>> result_value("C[C@]12CCC3c4ccc(O)cc4CCC3C1CC[C@@H]2OC(=O)CCC1CCCC1 (stereo partly specified)")
1
>>> result_value("CC(=O)OC1CCC2C3CCc4cc(O)ccc4C3CCC12C (stereo unspecified)")
0.99
>>> result_value("N#Cc1ccc2c(c1)N(CCCN1CCC(O)CC1)c1ccccc1S2")
1.03
>>> result_value("CSCCC(NC=O)C(=O)NC(CC(C)C)C(=O)NC(Cc1ccccc1)C(=O)O (stereo unspecified)")
0.983
>>> result_value("O=C(O)c1cc2cc(Cl)ccc2[nH]1")
0.983
>>> result_value("N#C/C(=C\\c1ccc(O)cc1)C(=O)O")
0.997
>>> result_value("O=c1n(CCCN2CCN(c3cccc(Cl)c3)CC2)nc2ccccn12")
0.987
>>> result_value("NCCS")
1.02
>>> result_value("CC1(C)C[C@@H]2C(=O)CC[C@H]3O[C@]3(C)CC[C@H]21")
0.994
>>> result_value("c1coc(CNc2ncnc3nc[nH]c23)c1")
0.991
>>> result_value("Nc1ncnc2nc[nH]c12")
0.923

---

- protocol_summary: chemical genetic growth profiling, strain panel (AID 1159580);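 also: tested at 20 µM; growth read once vehicle control cultures reached saturation at 30 °C; 1 = growth at the plate median or of vehicle wells; lower values mean less growth of the strain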
- assay_context: S. cerevisiae deletion strains, growth OD, locus YJL095W, strain BCK1 (second series), hits give low values
In all, about 5,500 compounds went through this assay and about 2,000 (36%) were called active. About 18% were inconclusive and are not listed. Some of the results follow.
reported_endpoint: normalized growth

>>> result_value("NCCS")
0.996
>>> result_value("Cc1c(N(C)CS(=O)(=O)O)c(=O)n(-c2ccccc2)n1C")
1.02
>>> result_value("CCC(=O)O[C@H]1CCC2C3CCc4cc(O)ccc4C3CC[C@@]21C (stereo partly specified)")
0.996
>>> result_value("CC(=O)Oc1ccc2c(c1)CCC1C2CC[C@@]2(C)C1CC[C@@H]2OC(C)=O (stereo partly specified)")
0.973
>>> result_value("N#Cc1ccc2c(c1)N(CCCN1CCC(O)CC1)c1ccccc1S2")
0.988
>>> result_value("CCCCC/C=C\\C/C=C\\C/C=C\\C/C=C\\CCCC(=O)O")
0.972

---

- protocol_summary: chemical genetic growth profiling, strain panel (AID 1159580);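 also: tested at 20 µM; growth read once vehicle control cultures reached saturation at 30 °C; 1 = growth at the plate median or of vehicle wells; lower values mean less growth of the strain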
- assay_context: S. cerevisiae deletion strains, growth OD, locus YHR205W, strain SCH9, hits give low values
In all, about 5,500 compounds went through this assay and about 2,000 (36%) were called active. Roughly 18% stayed inconclusive and do not appear here. The list shows a part of the results.
reported_endpoint: normalized growth

>>> result_value("N/C(=N/OC(=O)c1ccccc1Cl)c1cccc(CS(=O)(=O)c2ccc(Cl)cc2)c1")
0.984
>>> result_value("CCC1(c2ccccc2)OC(c2cc(Cl)cc(Cl)c2O)Nc2ccccc21 (stereo not drawn)")
0.639
>>> result_value("NNC(=O)COc1ccc(C2SCCS2)cc1")
0.162
>>> result_value("N#C/C(=C\\C=C\\c1ccccc1)c1nc2ccccc2[nH]1")
0.818
>>> result_value("CCOC(=O)C(O)(c1ccc(NC(=O)Nc2ccc(Cl)cc2)cc1)C(F)(F)F (stereo not drawn)")
0.935
>>> result_value("COc1ccc(-c2cc(NS(=O)(=O)c3cccc(F)c3)n(-c3ccc(Cl)c(Cl)c3)n2)cc1")
0.856
>>> result_value("Fc1ccc(Nc2nc(-c3ccc(F)c(F)c3)cs2)c(F)c1")
0.000718
>>> result_value("COc1cc(OC)cc(/C(N)=N\\O)c1")
0.891
>>> result_value("COc1ccc(/C(C#N)=C2C=C/C(=N/O)C(Cl)=C\\2)cc1")
0.775
>>> result_value("CCOC(=O)C(NC(C)=O)(Nc1ccc(F)c(Cl)c1)C(F)(F)F (stereo not drawn)")
1.01
>>> result_value("CC(/C=C/c1ccccc1)=N/OC(=O)c1ccccc1Cl")
0.864
>>> result_value("Cc1nn(Cc2cccc(C(=O)O/N=C(/N)c3ccc(Cl)cc3)c2)c(C)c1Br")
0.999
>>> result_value("CCCCCc1ccc(S(=O)(=O)Nc2ncc(C)cc2Br)cc1")
0.702
>>> result_value("CC1CCc2c(sc3ncnc(Sc4ccccc4)c23)C1 (stereo not drawn)")
0.992
>>> result_value("Nc1ccc(N2CCN(c3ccc(C(F)(F)F)cn3)CC2)nc1")
0.986
>>> result_value("O=S(=O)(Nc1ccc(-n2nc(C(F)(F)F)cc2-c2cccs2)cc1)c1ccc(F)cc1")
0.983
>>> result_value("O=C(c1ccc(Cl)cc1)N1CCN(c2ccc(C(F)(F)F)cn2)CC1")
0.857
>>> result_value("Cc1nc([N+](=O)[O-])cn1CC(=O)c1ccc(Cl)cc1")
0.964
>>> result_value("N#CC(C#N)=NNc1ccc(-n2ccc(C(F)(F)F)n2)cc1")
0.595
>>> result_value("CC(=O)Oc1ccc2c(=O)c(Oc3ccc(Cl)cc3)c(C)oc2c1")
0.776
>>> result_value("Cc1c(NCN2C(=O)CCC2=O)cc2c(c1[N+](=O)[O-])C(C)(C)CC2(C)C")
0.904
>>> result_value("CCCCc1ccc(N=CNO)c(C)c1")
0.475
>>> result_value("COC(=O)c1ccc(Oc2c(C(F)(F)F)oc3cc(O)ccc3c2=O)cc1")
0.949

---

- protocol_summary: chemical genetic growth profiling, strain panel (AID 1159580);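 also: tested at 20 µM; growth read once vehicle control cultures reached saturation at 30 °C; 1 = growth at the plate median or of vehicle wells; lower values mean less growth of the strain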
- assay_context: S. cerevisiae deletion strains, growth OD, locus YJL134W, strain LCB3, hits give low values
The campaign covered roughly 5,500 compounds. About 2,000 (36%) were called active. Inconclusive results (about 18%) are left out. This is one part of the list.
Attribute: normalized growth
reported_endpoint: normalized growth

>>> result_value("COc1cc(O)c(C(=O)c2ccccc2)c(OC)c1")
0.986
>>> result_value("Cn1c([N+](=O)[O-])cnc1COC(N)=O")
1
>>> result_value("COc1cc(O)c(C(C)=O)c(OC)c1")
1
>>> result_value("O=C(O)c1cc2cc(Cl)ccc2[nH]1")
1.01
>>> result_value("Nc1ncnc2c1ncn2[C@@H]1O[C@H](CO)[C@@H](O)[C@@H]1O")
1.01
>>> result_value("COc1cc(OC)c(-c2c(OC)cc(OC)cc2OC)c(OC)c1")
1.01
>>> result_value("N#C/C(=C\\c1ccc(O)cc1)C(=O)O")
0.983
>>> result_value("CCCCC/C=C\\C/C=C\\C/C=C\\C/C=C\\CCCC(=O)O")
1.02
>>> result_value("OCCN1CCN(CCCN2c3ccccc3Sc3ccc(Cl)cc32)CC1")
1.01
>>> result_value("Cc1cc(C)nc(NS(=O)(=O)c2ccc(N)cc2)n1")
0.985
>>> result_value("O=C(CCCN1CC=C(n2c(=O)[nH]c3ccccc32)CC1)c1ccc(F)cc1")
0.979
>>> result_value("CC(C)(O)CC[C@@H](O)[C@](C)(O)C1CC[C@@]2(O)C3=CC(=O)C4C[C@@H](O)[C@@H](O)C[C@]4(C)C3CC[C@]12C (some centres undefined)")
1.01
>>> result_value("C[C@]12C=CC(=O)C=C1CCC1C2C(=O)C[C@@]2(C)C1CC[C@]2(O)C(=O)CO (some centres undefined)")
0.995
>>> result_value("CC1=C(C(=O)O)N2C(=O)[C@@H](NC(=O)[C@H](N)C3=CCC=CC3)C2SC1 (some centres undefined)")
0.985
>>> result_value("C[C@]12C=CC(=O)C=C1CCC1C2CC[C@]2(C)C(=O)CCC12 (some centres undefined)")
1.01
>>> result_value("O=c1[nH]c2ccccc2n1C1CCN(CCCC(c2ccc(F)cc2)c2ccc(F)cc2)CC1")
0.993
>>> result_value("Cc1c(N(C)CS(=O)(=O)O)c(=O)n(-c2ccccc2)n1C")
0.986
>>> result_value("COc1cc(O)c(C(=O)O)c(O)c1")
0.993
>>> result_value("O=c1n(CCCN2CCN(c3cccc(Cl)c3)CC2)nc2ccccn12")
0.992
>>> result_value("CN1CCN(CCCN2c3ccccc3Sc3ccc(Cl)cc32)CC1")
0.991
>>> result_value("N#Cc1ccc2c(c1)N(CCCN1CCC(O)CC1)c1ccccc1S2")
1
>>> result_value("CC(C)=CCC1=C(O)c2ccccc2C(=O)C1=O")
0.95
>>> result_value("COc1cc(O)c(C)c(O)c1")
1
>>> result_value("COc1ccc2c(c1)[nH]c1c(C)nccc12")
1.01

Measured values drawn from PubChem BioAssay AID1159580 for this set.
